biological target: PI3K-β (p110β/p85α) (Homo sapiens (Human), UniProt P42338); test: Fluorescent determination of PI3K enzyme activity (Transcreener KINASE Assay), PI3K-β; format: biochemical; conditions: inhibition rate at 1 μM;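 further: Far-red fluorescence polarization immunoassay detecting ADP produced by the kinase, 80 min enzyme reaction at room temperature, inhibition relative to ADP formed in 2% DMSO control wells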
Sequence (P42338 whole entry, species assumed): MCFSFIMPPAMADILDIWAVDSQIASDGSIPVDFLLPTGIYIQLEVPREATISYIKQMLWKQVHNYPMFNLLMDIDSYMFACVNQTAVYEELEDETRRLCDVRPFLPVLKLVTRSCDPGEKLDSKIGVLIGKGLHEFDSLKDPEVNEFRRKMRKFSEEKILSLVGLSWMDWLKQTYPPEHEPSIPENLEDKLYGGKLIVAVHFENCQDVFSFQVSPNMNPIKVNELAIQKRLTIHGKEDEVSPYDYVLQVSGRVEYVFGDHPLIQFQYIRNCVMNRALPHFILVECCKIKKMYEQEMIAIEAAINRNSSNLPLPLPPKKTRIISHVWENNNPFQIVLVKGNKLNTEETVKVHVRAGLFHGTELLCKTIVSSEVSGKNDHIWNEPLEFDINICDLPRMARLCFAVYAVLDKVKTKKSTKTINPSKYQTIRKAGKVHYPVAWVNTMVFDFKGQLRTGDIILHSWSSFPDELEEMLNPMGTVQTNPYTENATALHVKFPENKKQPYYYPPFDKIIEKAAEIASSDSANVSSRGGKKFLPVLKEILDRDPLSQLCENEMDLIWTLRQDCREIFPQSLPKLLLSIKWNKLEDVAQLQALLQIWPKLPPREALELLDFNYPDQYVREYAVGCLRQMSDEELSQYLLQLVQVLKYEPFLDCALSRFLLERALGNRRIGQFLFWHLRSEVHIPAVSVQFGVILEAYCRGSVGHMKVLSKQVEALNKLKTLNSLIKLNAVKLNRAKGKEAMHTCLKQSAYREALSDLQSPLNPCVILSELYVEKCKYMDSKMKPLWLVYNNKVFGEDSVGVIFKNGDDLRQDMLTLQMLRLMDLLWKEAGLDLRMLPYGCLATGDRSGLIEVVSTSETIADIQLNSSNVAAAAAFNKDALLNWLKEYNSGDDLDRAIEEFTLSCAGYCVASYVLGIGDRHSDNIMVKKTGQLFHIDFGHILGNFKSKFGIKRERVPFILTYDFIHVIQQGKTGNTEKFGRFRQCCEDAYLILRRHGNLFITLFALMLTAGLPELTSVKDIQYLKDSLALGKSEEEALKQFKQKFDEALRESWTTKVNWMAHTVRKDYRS
Sequence (P27986 whole entry partner, species assumed): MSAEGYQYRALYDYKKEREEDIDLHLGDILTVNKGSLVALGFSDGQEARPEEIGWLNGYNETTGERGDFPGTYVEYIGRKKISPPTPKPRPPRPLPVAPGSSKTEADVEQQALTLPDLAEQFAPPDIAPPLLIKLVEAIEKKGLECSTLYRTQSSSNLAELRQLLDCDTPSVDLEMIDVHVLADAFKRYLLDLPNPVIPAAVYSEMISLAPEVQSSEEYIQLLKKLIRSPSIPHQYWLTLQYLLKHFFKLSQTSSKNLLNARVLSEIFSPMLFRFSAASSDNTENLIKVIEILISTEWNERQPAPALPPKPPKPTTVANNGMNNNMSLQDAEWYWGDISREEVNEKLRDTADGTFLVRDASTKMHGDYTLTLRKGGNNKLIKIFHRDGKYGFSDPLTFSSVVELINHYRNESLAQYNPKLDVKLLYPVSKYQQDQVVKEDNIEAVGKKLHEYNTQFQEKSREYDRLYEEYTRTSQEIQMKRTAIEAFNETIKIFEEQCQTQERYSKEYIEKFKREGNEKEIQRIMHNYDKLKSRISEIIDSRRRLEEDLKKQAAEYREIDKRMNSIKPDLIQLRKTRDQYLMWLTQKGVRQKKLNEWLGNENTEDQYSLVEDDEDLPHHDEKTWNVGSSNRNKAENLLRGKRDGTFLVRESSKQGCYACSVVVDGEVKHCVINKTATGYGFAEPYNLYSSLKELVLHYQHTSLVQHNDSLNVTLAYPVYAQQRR
parameterMeasured: PI3K-β IH% (%)

compound | PI3K-β IH%, %
C[C@@H](c1cc2ncc(Cl)n2nc1-c1ccccc1)n1cnc2c(N)ncnc21 | 17.4

A. Cc1nc(N)c(C#N)c(N[C@@H](C)c2cc3ncc(Cl)n3nc2-c2ccccc2)n1
B. C[C@H](Nc1nc(O)nc(N)c1C#N)c1cc2ncc(Cl)n2nc1-c1ccccc1
C. CCC(Nc1ncnc2[nH]cnc12)c1cc2ncc(Cl)n2nc1-c1ccccc1 (centres unmarked) [Compound 14]
D. C[C@H](Nc1ncnc(N)c1C#N)c1cc2ncc(Cl)n2nc1-c1ccc2ccccc2c1
E. C[C@H](Nc1ncnc(N)c1C#N)c1cc2ncc(Cl)n2nc1-c1cccc(F)c1
Query block: Your job: order these 5 records by PI3K-β IH%, ascending. Reply: labels, ordered per the request.
Result block: C, B, A, D, E
(C: 3.2%, B: 8.5%, A: 23.8%, D: 35.2%, E: 59%)

P. C[C@H](Nc1ncnc(N)c1C(=O)N(C)C)c1cc2ncc(Cl)n2nc1-c1ccccc1
Q. C[C@H](Nc1ncnc(N)c1-c1cnn(C)c1)c1cc2ncc(Cl)n2nc1-c1ccccc1
Query block: Compare reported PI3K-β IH% values for P and Q . Which is lower? Your answer should be the label of the entry you select.
Result block: Q
(Q: 6.3%, P: 9.0%)

A. CCC(Nc1ncnc(N)c1C#N)c1cc2ncc(Cl)n2nc1-c1ccccn1 (centres unmarked)
B. CC[C@H](Nc1ncnc2[nH]cnc12)c1cc2ncc(Cl)n2nc1-c1cccc(F)c1
Query block: Select the item whose PI3K-β IH% value is smaller, choosing between A and B . I would appreciate it if you answered with the label of your choice.
Result block: A
(A: 11.1%, B: 32.2%)

====

molecular target: PI3K-β (p110β/p85α) (Homo sapiens (Human)); assay: Fluorescent determination of PI3K enzyme activity (Transcreener KINASE Assay), PI3K-β; type: biochemical; details: inhibition rate at 1 μM
parameterMeasured: PI3K-β IH% (%)

a. CNc1ncnc(N[C@@H](C)c2cc3ncc(Cl)n3nc2-c2ccccc2)c1C#N
b. CC(Nc1ncnc(N)c1C#N)c1cc2nccn2nc1-c1ccccc1 (centres unmarked)
Query block: Would you let me know which has the greater PI3K-β IH% value, a or b ? When you have decided, please share the label of that item.
Result block: b

I. CCC(Nc1ncnc(N)c1C#N)c1cc2ncc(Cl)n2nc1-c1cccc(F)c1 (centres unmarked)
II. CC[C@@H](Nc1ncnc(N)c1C#N)c1cc2ncc(Cl)n2nc1-c1ccccc1
III. Cc1cnc2cc([C@H](C)Nc3ncnc4[nH]cnc34)c(-c3ccccc3)nn12
IV. C[C@@H](c1cc2ncc(Cl)n2nc1-c1ccccc1)n1ccc2c(N)ncnc21
Query block: Arrange items by their PI3K-β IH% values in increasing order. Form field (ranking): labels in requested order.
Result block: II, IV, III, I

I. C[C@H](Nc1ncnc(N)c1C#N)c1cc2ncc(Cl)n2nc1-c1ccc(Cl)c(F)c1
II. Cc1cn2nc(-c3ccccc3)c([C@H](C)Nc3ncnc(N)c3C#N)cc2n1
III. C[C@H](Nc1ncnc(N)c1-c1cccc(F)c1)c1cc2ncc(Cl)n2nc1-c1ccccc1
Query block: Task for the reader: rank each entry by its PI3K-β IH%, from the minimum upward. Respond with an ordered listing of the labels, as requested.
Result block: III, II, I

====

target: PI3K-γ (p110γ) (Homo sapiens (Human)); assay: Fluorescent determination of PI3K enzyme activity (Transcreener KINASE Assay), PI3K-γ; format: biochemical; details: inhibition rate at 1 μM;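 further: p110γ enzyme reaction for 80 min at room temperature, ADP formed measured by far-red competitive fluorescence polarization immunoassay, inhibition relative to wells with 2% DMSO only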
Sequence (P48736 whole entry, species assumed): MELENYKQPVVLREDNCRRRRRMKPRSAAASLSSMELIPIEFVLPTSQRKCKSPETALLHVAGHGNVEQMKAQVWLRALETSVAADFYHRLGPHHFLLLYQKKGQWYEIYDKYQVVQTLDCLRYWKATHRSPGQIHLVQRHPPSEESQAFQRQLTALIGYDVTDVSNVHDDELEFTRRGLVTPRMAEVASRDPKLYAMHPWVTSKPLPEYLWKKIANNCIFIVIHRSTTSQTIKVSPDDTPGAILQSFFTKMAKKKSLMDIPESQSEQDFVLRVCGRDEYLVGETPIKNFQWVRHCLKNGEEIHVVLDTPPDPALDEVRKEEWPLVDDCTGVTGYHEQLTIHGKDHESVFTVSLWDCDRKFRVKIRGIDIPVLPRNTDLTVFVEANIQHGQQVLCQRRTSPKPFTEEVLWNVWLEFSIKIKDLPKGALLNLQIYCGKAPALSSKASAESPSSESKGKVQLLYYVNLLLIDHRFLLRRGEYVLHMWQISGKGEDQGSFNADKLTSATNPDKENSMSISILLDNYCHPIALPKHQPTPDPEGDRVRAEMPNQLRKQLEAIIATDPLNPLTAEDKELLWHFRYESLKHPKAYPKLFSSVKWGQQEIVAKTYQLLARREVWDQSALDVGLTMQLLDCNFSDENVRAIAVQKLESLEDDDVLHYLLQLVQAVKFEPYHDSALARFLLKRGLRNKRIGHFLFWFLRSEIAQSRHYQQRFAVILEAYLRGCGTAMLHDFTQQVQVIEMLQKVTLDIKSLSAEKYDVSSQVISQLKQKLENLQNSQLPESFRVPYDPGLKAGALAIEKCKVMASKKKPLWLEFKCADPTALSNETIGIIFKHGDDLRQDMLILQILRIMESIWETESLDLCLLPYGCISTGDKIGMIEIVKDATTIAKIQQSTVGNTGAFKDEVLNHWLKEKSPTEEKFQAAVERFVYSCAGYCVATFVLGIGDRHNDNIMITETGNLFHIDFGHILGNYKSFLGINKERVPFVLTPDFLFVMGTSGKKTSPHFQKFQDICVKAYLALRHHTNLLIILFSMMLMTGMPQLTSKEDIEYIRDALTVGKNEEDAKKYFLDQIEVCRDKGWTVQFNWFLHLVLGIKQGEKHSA
parameterMeasured: PI3K-γ IH% (%)

molecule | PI3K-γ IH% / %
C[C@H](Nc1ncnc(N)c1-c1cnn(C)c1)c1cc2ncc(Cl)n2nc1-c1ccccc1 | 30.3
COc1cc(-c2c(N)ncnc2N[C@@H](C)c2cc3ncc(Cl)n3nc2-c2ccccc2)ccn1 | 5.5
C[C@H](Nc1nc(O)nc(N)c1C#N)c1cc2ncc(Cl)n2nc1-c1ccccc1 | −4.7
CCC(Nc1ncnc2[nH]cnc12)c1cc2ncc(Cl)n2nc1-c1ccccc1F (centres unmarked) | 8

I. CC[C@@H](Nc1ncnc2[nH]cnc12)c1cc2ncc(Cl)n2nc1-c1cccc(F)c1
II. CC(Nc1ncnc2[nH]cc(C#N)c12)c1cc2ncc(Cl)n2nc1-c1ccccc1 (single isomer, unassigned)
Query block: Of the two listed items, I and II , which carries the larger PI3K-γ IH% figure? # answer = label of selected item
Result block: I
(I: 36.0%, II: −1.4%)

P. C[C@@H](c1cc2ncc(Cl)n2nc1-c1ccccc1)n1cnc2c(N)ncnc21
Q. C[C@H](Nc1ncnc(N)c1C#N)c1cc2ncc(Cl)n2nc1-c1ccc2ccn(C)c2c1
Query block: Which record shows the lower PI3K-γ IH%: the first, P , or the second, Q ? Lab note: record the label of whichever item you select.
Result block: Q
(Q: −14.3%, P: 43.1%)

====

target: PI3K-β (p110β/p85α) (Homo sapiens (Human)); assay: Fluorescent determination of PI3K enzyme activity (Transcreener KINASE Assay), PI3K-β; format: biochemical; conditions: inhibition rate at 1 μM
parameterMeasured: PI3K-β IH% (%)

Field: example entries. Status: answers known.
molecule | unitName | PI3K-β IH%
C[C@H](Nc1ncnc(N)c1C(=O)O)c1cc2ncc(Cl)n2nc1-c1ccccc1 | % | −6.3
C[C@H](Nc1nc(N)ncc1C#N)c1cc2ncc(Cl)n2nc1-c1ccccc1 | % | 3.7
CC[C@@H](Nc1ncnc(N)c1C#N)c1cc2ncc(Cl)n2nc1-c1cccc(F)c1 | % | 23.6
COc1ccc(-c2c(N)ncnc2N[C@@H](C)c2cc3ncc(Cl)n3nc2-c2ccccc2)cn1 | % | −4.4
Cc1noc(-c2c(N)ncnc2N[C@@H](C)c2cc3ncc(Cl)n3nc2-c2ccccc2)n1 | % | 55.2

a. C[C@H](Nc1ncnc(N)c1C#N)c1cc2ncc(Cl)n2nc1-c1cccc(C(C)(C)O)c1 (single isomer, unassigned)
b. C[C@@H](Nc1ncnc(N)c1C#N)c1cc2ncc(Cl)n2nc1-c1ccc2scnc2c1
c. C[C@H](Nc1ncnc2[nH]ccc12)c1cc2ncc(Cl)n2nc1-c1ccccc1
Query block: Task field, ranking: reported PI3K-β IH%, descending order. Answer format: the labels, ordered as requested.
Result block: a, c, b
(a: 43.8%, c: 15.8%, b: −7.1%)

a. C[C@H](Nc1ncnc(N)c1C#N)c1cc2ncc(Cl)n2nc1-c1ccccn1
b. C[C@@H](Nc1ncnc(N)c1C#N)c1cc2ncc(Cl)n2nc1-c1ccccn1
Query block: Sort a and b by PI3K-β IH% descending and give the first. Lab note: record the label of whichever item you select.
Result block: a

====

Overview of reported PI3K-β IH% across a group of compounds:
target: PI3K-β (p110β/p85α) (Homo sapiens (Human)); test: Fluorescent determination of PI3K enzyme activity (Transcreener KINASE Assay), PI3K-β; type: biochemical; settings: inhibition rate at 1 μM
Write the answer as a number in %, unit excluded.

Query block: Tell me the measured PI3K-β IH% of "CC[C@@H](Nc1ncnc2[nH]cnc12)c1cc2ncc(Cl)n2nc1-c1cccc(F)c1" , please.
Result block: 18.8

Query block: May I ask what PI3K-β IH% has been recorded for CCC(Nc1ncnc2[nH]cnc12)c1cc2ncc(Cl)n2nc1-c1ccccc1F (stereo not shown) [Compound 25] ?
Result block: 22.8

Query block: Which value of PI3K-β IH% has been reported for "C[C@H](Nc1ncnc(N)c1C#N)c1cc2ncc(F)n2nc1-c1ccccc1" in the records?
Result block: 50.1

Query block: Need PI3K-β IH% of CCC(Nc1ncnc2[nH]cnc12)c1cc2ncc(Cl)n2nc1-c1ccccc1F (stereo not shown) [Compound 26] , thanks.
Result block: −7.5
